# protocolDescription: Plasma clearance in rat at 5 umol/kg, iv and 5 umol/kg, po
# Format: ADME, organism-based
endpointName: clearance (mL/min/kg)

>>> testvalue("CN[C@@H](CC(C)C)C(=O)N[C@H]1CC[C@@H]2CN(S(=O)(=O)c3ccc(C(F)(F)F)cc3)C[C@@H]21")
46.7

[I] CN[C@@H](CC(C)C)C(=O)N[C@H]1CC[C@@H]2CN(c3ccc(C(F)(F)F)cc3)C[C@@H]21
[II] CN[C@@H](CC(C)C)C(=O)N[C@@H]1CC[C@H]2CN(S(=O)(=O)c3ccc(C(F)(F)F)cc3)C[C@H]21
Select the item with the higher value of clearance from the options I and II listed. Field: selected label. Fill in the label of the entry you choose.
II
